Measured values drawn from PubChem BioAssay AID492960 for this set.

# test_name: Secondary Assay for lipid storage modulators: HepG2 cell LDSA assay for probe SAR
# condition_description: HepG2 lipid droplet BODIPY, laser-scanning cytometry, 18-24 h; series mostly up to 46.1 µM
Results filed as inconclusive are left out. Activity calls are given as the source filed them. Calls follow the shape of the dose curve; as a rule, active = well fitted curve in the direction sought with a large enough effect; inconclusive = small, poorly fitted or top-dose-only effect, or effect the other way, or another doubt; inactive = no such curve, though single readings can be large or run the other way.
Answer with one of the outcomes given here: active, inactive

Example cases with answers are listed next.
O=C(NC1CCCc2c1cnn2-c1ccc(F)cc1F)c1cccc(=O)[nH]1 (stereo unspecified) | inactive
CCOc1ccc(CCNC(=O)C2(c3ccccc3)CC2)cc1OCC | inactive
CCOc1ccc(CCNC(=O)c2ccc(C3(C(F)(F)F)N=N3)cc2)cc1OCC | inactive
O=C(NC1CCCc2c1cnn2-c1ccc(F)cc1F)c1cnccn1 (stereo unspecified) | inactive
O=C(c1cc2sccc2n1Cc1ccccc1)N(CCc1ccc(O)c(O)c1)Cc1ccccc1 | inactive
O=C(O)c1cccc(-c2noc(-c3ccccc3F)n2)c1 | inactive

Input: Query: recorded result category for CCOc1ccc(CCNC(=O)C2COc3ccccc3O2)cc1OCC (stereo unspecified) in this test
Output: inactive

Input: Entry `CCOc1ccc(CCNC(=O)c2cc3sccc3n2Cc2ccc(Cl)c(F)c2)cc1OCC` : call = ?
Output: inactive

Input: For `O=C(Nc1ccccc1-c1cn2c(CN3CCNCC3)csc2n1)c1cnc2ccccc2n1` , which call appears in the assay record?
Output: active

Input: Status in this test for `CCOc1ccc(CCNC(=O)c2cc3sccc3[nH]2)cc1OCC` ?
Output: inactive

Input: Which result was noted for this compound in the test: `CCn1c(C(=O)NCCc2ccc(OC)cc2)cc2sccc21`
Output: inactive
